Values compiled from ChEMBL document CHEMBL1140165.

- Species on record: Homo sapiens
- ASSAY DETAILS: Selectivity ratio of Ki for human histamine H4 receptor to Ki for human histamine H3 receptor
Just a reminder that ties go to Not fulfilled: only Ratio Ki strictly below 90 counts as Fulfilled.

Worked cases, answers included:
[in] Strictly below 90: is that where Ratio Ki of "Nc1nc2c(c(N3CCNCC3)n1)CCCc1ccc(F)cc1-2" sits?
[out] Not fulfilled

[in] Strictly below 90: is that where Ratio Ki of Nc1nc2c(c(N3CCNCC3)n1)CCCCC2c1ccccc1 (stereo unspecified) sits?
[out] Fulfilled

[in] Is 90 strictly greater than the compound's reported Ratio Ki? compound: "CN1CCN(c2cc(-c3ccc(C#N)cc3)nc(N)n2)CC1"
[out] Fulfilled

[in] Strictly below 90 in Ratio Ki? "CNC1CN(c2nc(N)nc3c2CCCc2ccccc2-3)C1"
[out] Not fulfilled

[in] For "CN[C@@H]1CCN(c2nc(N)nc3c2CCCc2ccccc2-3)C1" , is the recorded Ratio Ki below the cut-off of 90?
[out] Not fulfilled

Now for another entry.
[in] Decide: Ratio Ki of "Nc1nc2c(c(N3CCNCC3)n1)CCCc1ccccc1-2" strictly below 90?
[out] Fulfilled

###

- ASSAY DETAILS: Selectivity ratio of Ki for human histamine H4 receptor to Ki for dopamine D2 receptor
Item-by-item account of Ratio Ki
Number only, no unit.

A selection of reference data follows.
[in] Dear colleague, I am looking for the recorded Ratio Ki of the following compound: "CNC1CN(c2nc(N)nc3c2CCCc2ccccc2-3)C1"
[out] 123

[in] Entry under review: "CN[C@@H]1CCN(c2nc(N)nc3c2CCCc2ccccc2-3)C1" . Reported Ratio Ki?
[out] 1820

Now, please, on to the next compound.
[in] // Ratio Ki lookup, key: Nc1nc2c(c(N3CCNCC3)n1)CCCCC2c1ccccc1 (stereo unspecified)
[out] 480

###

- ASSAY DETAILS: Selectivity ratio of Ki for human histamine H4 receptor to Ki for 5HT1A receptor
Hi, to clarify the labels: Met covers Ratio Ki from 10 upward, Not met covers anything below 10.

[in] Test whether the compound "CN[C@@H]1CCN(c2nc(N)nc3c2CCCc2ccccc2-3)C1" records Ratio Ki of 10 or higher.
[out] Met

[in] Confirm if Ratio Ki reported for the compound "CN1CCN(c2cc(-c3ccc(C#N)cc3)nc(N)n2)CC1" is 10 or above.
[out] Not met

[in] Does Nc1nc2c(c(N3CCNCC3)n1)CCCCC2c1ccccc1 (stereo unspecified) have a reported Ratio Ki of at least 10?
[out] Met

[in] Does "Nc1nc2c(c(N3CCNCC3)n1)CCCc1ccccc1-2" have a reported Ratio Ki of at least 10?
[out] Met

[in] Dear colleague, could you confirm whether "Nc1nc2c(c(N3CCNCC3)n1)CCCc1ccc(F)cc1-2" has Ratio Ki at or above 10?
[out] Met

---
[in] # check: Ratio Ki of "CNC1CN(c2nc(N)nc3c2CCCc2ccccc2-3)C1" is greater than or equal to 10
[out] Met

###

- ASSAY DETAILS: Tmax in mouse at 20 mg/kg, sc
- Type: ADME, organism-based
- Design: dose 20 mg/kg, route subcutaneous
- CONDITION SUMMARY: in vivo
QUANTITY MEASURED: Tmax

[in] Item under review: "O=C(c1cc2cc(Cl)ccc2[nH]1)N1CCNCC1" . Reported Tmax?
[out] 2 h

Next up:
[in] Which measured Tmax value corresponds to "CN1CCN(C(=O)c2cc3cc(Cl)ccc3[nH]2)CC1" ?
[out] 0.5 h

###

Recorded pKb for the following compounds
- TARGET OR SYSTEM: Histamine H4 receptor (Homo sapiens)
- Sequence (Q9H3N8 whole entry): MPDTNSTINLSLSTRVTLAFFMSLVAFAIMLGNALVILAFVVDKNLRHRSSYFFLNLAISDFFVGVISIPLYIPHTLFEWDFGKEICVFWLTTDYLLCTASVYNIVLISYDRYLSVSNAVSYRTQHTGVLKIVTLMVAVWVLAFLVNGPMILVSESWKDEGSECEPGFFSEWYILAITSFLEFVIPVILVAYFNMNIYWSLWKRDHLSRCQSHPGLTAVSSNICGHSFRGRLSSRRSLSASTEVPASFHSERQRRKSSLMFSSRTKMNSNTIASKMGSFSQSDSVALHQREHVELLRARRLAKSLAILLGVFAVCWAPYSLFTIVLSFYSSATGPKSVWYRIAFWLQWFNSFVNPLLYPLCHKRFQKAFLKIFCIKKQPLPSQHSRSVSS
- CONDITION SUMMARY: HEK293
Number only, no unit.

Reference set, count: 5
[in] What value of pKb has been reported for the following compound? "CN1CCN(c2nc(N)nc3c2CCc2ccccc2-3)CC1"
[out] 8.08

[in] Endpoint output: pKb of "CN[C@@H]1CCN(c2nc(N)nc3c2CCCCc2ccccc2-3)C1" . Value?
[out] 8.15

[in] // lookup pKb for "CN[C@@H]1CCN(c2nc(N)nc3c2Cc2ccccc2-3)C1"
[out] 8.5

[in] What value of measured pKb is listed for "Nc1nc2c(c(N3CCNCC3)n1)Cc1ccccc1-2" ?
[out] 8.75

[in] Fill in the blank: the reported pKb of Nc1nc2c(c(N3CCNCC3)n1)CCCCC2c1ccccc1 (stereo not given) is ____.
[out] 7.24

Next:
[in] // lookup pKb for "CN[C@@H]1CCN(c2nc(N)nc3c2CCCCCc2ccccc2-3)C1"
[out] 7.6

[in] Fill in the blank: the reported pKb of "Nc1nc2c(c(N3CCNCC3)n1)CCc1ccccc1-2" is ____.
[out] 7.58

[in] Tell me the measured pKb of "Nc1nc2c(c(N3CC[C@@H](N)C3)n1)CCCc1ccccc1-2" , please.
[out] 8.24

###

# Ratio Ki values compiled below
- ASSAY DETAILS: Selectivity ratio of Ki for human histamine H4 receptor to Ki for dopamine D2 receptor

Observe how each entry below is paired with its result.
[in] What measured Ratio Ki goes with "Nc1nc2c(c(N3CCNCC3)n1)CCCc1ccccc1-2" ?
[out] > 140

[in] What value of measured Ratio Ki is listed for "CN1CCN(c2cc(-c3ccc(C#N)cc3)nc(N)n2)CC1" ?
[out] > 140

Okay, next one:
[in] Request the reported Ratio Ki associated with "Nc1nc2c(c(N3CCNCC3)n1)CCCc1ccc(F)cc1-2"
[out] > 2000

###

- TARGET OR SYSTEM: Histamine H4 receptor (Homo sapiens)
- CONDITION SUMMARY: HEK293
QUANTITY MEASURED: pKb

Example entries begin here.
[in] Any idea what its pKb is? The molecule is "Nc1nc2c(c(N3CCNCC3)n1)CCCc1ccc(F)cc1-2"
[out] 8.01

[in] I have this molecule here, "N#Cc1ccc(-c2cc(N3CCNCC3)nc(N)n2)cc1" , and I need its recorded pKb.
[out] 8.08

[in] Suppose we examine the molecule "CN1CCN(c2cc(-c3ccccc3)nc(N)n2)CC1" ; what pKb value has been reported?
[out] 8.39

[in] Which pKb reading was recorded for the molecule "CNC1CN(c2nc(N)nc3c2CCCc2ccccc2-3)C1" ?
[out] 8.05

[in] State the recorded pKb for this entry: "CN[C@@H]1CCN(c2nc(N)nc3c2CCCc2ccccc2-3)C1"
[out] 8.21

[in] Param item = "CN[C@@H]1CCN(c2nc(N)nc3c2CCc2ccccc2-3)C1" ; retrieve measured pKb.
[out] 8.29

Okay, now this molecule:
[in] pKb for "O=C(c1cc2cc(Cl)ccc2[nH]1)N1CCNCC1" ?
[out] 7.74
